- testedTarget: heat resistant trehalose phosphorylase (Geobacillus stearothermophilus)
- Construct: heat resistant trehalose phosphorylase which Bacillus stearothermophilus SK-1 found by the present inventors produces; made in house; host or cells: Bacillus stearothermophilus SK-1 (FERM BP-5594), the producing strain itself
- Sequence (Q8GRC3 whole entry, change not shown): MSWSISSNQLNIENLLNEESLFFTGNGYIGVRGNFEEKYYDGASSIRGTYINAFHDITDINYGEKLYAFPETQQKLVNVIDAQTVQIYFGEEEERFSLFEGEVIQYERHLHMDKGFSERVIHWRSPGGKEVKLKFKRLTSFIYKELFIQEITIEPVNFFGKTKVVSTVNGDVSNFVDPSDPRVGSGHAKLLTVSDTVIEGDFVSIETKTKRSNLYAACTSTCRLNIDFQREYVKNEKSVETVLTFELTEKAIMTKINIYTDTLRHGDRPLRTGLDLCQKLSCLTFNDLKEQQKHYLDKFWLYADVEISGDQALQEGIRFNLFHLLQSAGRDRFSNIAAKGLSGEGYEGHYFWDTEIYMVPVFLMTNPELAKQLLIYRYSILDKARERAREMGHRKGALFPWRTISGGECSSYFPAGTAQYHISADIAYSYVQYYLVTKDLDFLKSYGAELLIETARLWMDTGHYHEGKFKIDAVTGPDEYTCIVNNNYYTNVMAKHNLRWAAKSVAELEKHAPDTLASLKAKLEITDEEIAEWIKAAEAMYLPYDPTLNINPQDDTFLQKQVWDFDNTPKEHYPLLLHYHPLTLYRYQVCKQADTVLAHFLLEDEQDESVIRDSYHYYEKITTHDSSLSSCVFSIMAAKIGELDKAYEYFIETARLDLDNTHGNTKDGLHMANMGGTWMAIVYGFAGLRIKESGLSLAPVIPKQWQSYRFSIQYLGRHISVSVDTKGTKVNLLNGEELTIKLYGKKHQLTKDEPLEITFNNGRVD
- runDescription: Substrate specificity of heat resistant trehalose phosphorylase (phosphorolysis reaction, glucose formed)
- Type: biochemical, Bacillus stearothermophilus SK-1
- Design: concentration or dose not given beside the values
- assayConditions: each substance as substrate of phosphorolysis by heat resistant trehalose phosphorylase; trehalose = 100

[
  {
    "compound": "O=[N+]([O-])c1ccc(O[C@H]2O[C@H](CO)[C@@H](O)[C@H](O)[C@H]2O)cc1 [D - glucosideyl - α, p-nitrophenyl-α-D-glucoside]",
    "testedTarget": "heat resistant trehalose phosphorylase (Geobacillus stearothermophilus)",
    "unitsLabel": "%",
    "Relative activity (%)": 2
  },
  {
    "compound": "O=[N+]([O-])c1ccc(O[C@@H]2O[C@H](CO)[C@@H](O)[C@H](O)[C@H]2O)cc1 [D - glucosideyl - β, p-nitrophenyl-β-D-glucoside]",
    "testedTarget": "heat resistant trehalose phosphorylase (Geobacillus stearothermophilus)",
    "unitsLabel": "%",
    "Relative activity (%)": 2
  },
  {
    "compound": "OC[C@H]1O[C@H](O[C@H]2[C@H](O)[C@@H](O)[C@H](O)O[C@@H]2CO)[C@H](O)[C@@H](O)[C@@H]1O [Maltose]",
    "testedTarget": "heat resistant trehalose phosphorylase (Geobacillus stearothermophilus)",
    "unitsLabel": "%",
    "Relative activity (%)": 1
  },
  {
    "compound": "OC[C@H]1O[C@H](O[C@H]2O[C@H](CO)[C@@H](O)[C@H](O)[C@H]2O)[C@H](O)[C@@H](O)[C@@H]1O [Trehalose]",
    "testedTarget": "heat resistant trehalose phosphorylase (Geobacillus stearothermophilus)",
    "unitsLabel": "%",
    "Relative activity (%)": 100
  },
  {
    "compound": "OC[C@H]1O[C@@H](O[C@H]2[C@H](O)[C@@H](O)C(O)O[C@@H]2CO)[C@H](O)[C@@H](O)[C@@H]1O (some centres unmarked) [Cellobiose]",
    "testedTarget": "heat resistant trehalose phosphorylase (Geobacillus stearothermophilus)",
    "unitsLabel": "%",
    "Relative activity (%)": 2
  },
  {
    "compound": "OC[C@H]1O[C@@H](O[C@H]2O[C@H](CO)[C@@H](O)[C@H](O)[C@H]2O)[C@H](O)[C@@H](O)[C@@H]1O [Neotrehalose]",
    "testedTarget": "heat resistant trehalose phosphorylase (Geobacillus stearothermophilus)",
    "unitsLabel": "%",
    "Relative activity (%)": 1
  },
  {
    "compound": "OC[C@H]1O[C@@](CO)(O[C@H]2O[C@H](CO)[C@@H](O)[C@H](O)[C@H]2O)[C@@H](O)[C@@H]1O [Sucrose]",
    "testedTarget": "heat resistant trehalose phosphorylase (Geobacillus stearothermophilus)",
    "unitsLabel": "%",
    "Relative activity (%)": 1
  },
  {
    "compound": "OC[C@H]1O[C@H](OC[C@H]2OC(O)[C@H](O)[C@@H](O)[C@@H]2O)[C@H](O)[C@@H](O)[C@@H]1O (some centres unmarked) [Isomaltose]",
    "testedTarget": "heat resistant trehalose phosphorylase (Geobacillus stearothermophilus)",
    "unitsLabel": "%",
    "Relative activity (%)": 3
  }
]

The measurements presented in this section are drawn from patent US5827715A.
